Biological target: human GPBAR1 receptor (Homo sapiens)
Sequence (Q8TDU6 1-330): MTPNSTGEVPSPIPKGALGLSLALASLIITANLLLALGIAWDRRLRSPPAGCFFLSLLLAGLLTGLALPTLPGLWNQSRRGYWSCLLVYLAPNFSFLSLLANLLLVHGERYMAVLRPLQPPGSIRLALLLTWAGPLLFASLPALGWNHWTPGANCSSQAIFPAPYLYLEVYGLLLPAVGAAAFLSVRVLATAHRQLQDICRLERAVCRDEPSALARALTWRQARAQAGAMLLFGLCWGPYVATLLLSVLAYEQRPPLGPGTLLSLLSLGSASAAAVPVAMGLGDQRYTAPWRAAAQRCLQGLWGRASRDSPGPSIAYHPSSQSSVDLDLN
Assay: functional cAMP assay in CHO-dhfr(minus) cells expressing human GPBAR1 receptors
Settings: cAMP increase (TR-FRET) in CHO-dhfr(minus) cells expressing human GPBAR1; compounds incubated 30 min at 30° C.
READOUT_NAME: EC50 (µM)

In [3]: df
Out[3]:
                               smiles_input  measured_number
0  COC(=O)c1ccc(C(=O)N2CCN(C(=O)c3cc(F)cnc3Oc3cc(Cl)ccc3Cl)c3ccccc32)cc1             1.16
1  COc1ccc(Cl)c(N(C)C(=O)c2cc(F)cnc2Oc2cc(Cl)ccc2Cl)c1Cl             1.97
2  O=C(c1cccnc1Oc1cc(Cl)ccc1Cl)N1CCN(c2ccccc2)c2ccccc21             1.53
3  COc1cccc(OC)c1N(C)C(=O)c1cccnc1Oc1cc(Cl)ccc1Cl             1.55

[P] CN(C(=O)c1cccnc1Oc1cc(Cl)ccc1Cl)c1c(F)cccc1F
[Q] O=C(O)CNC(=O)CCc1cc(Cl)c(Oc2ncccc2C(=O)N2CCN(C3CC3)c3ccccc32)cc1Cl
Input: Consider entries P and Q . Which has the numerically lower EC50? // output: label of the selected item
Output: Q
(Q: 0.063 µM, P: 0.155 µM)

----------
target: human GPBAR1 receptor (Homo sapiens, UniProt Q8TDU6); assay: functional cAMP assay in CHO-dhfr(minus) cells expressing human GPBAR1 receptors; details: cAMP increase (TR-FRET) in CHO-dhfr(minus) cells expressing human GPBAR1; compounds incubated 30 min at 30° C.
READOUT_NAME: EC50 (nM)

The examples below pair each entry with its known result.
In [3]: df
Out[3]:
                                   compound  result_units  measured_number
0  CC(CN1CCN(C(=O)c2cc(F)cnc2Oc2cc(Cl)ccc2Cl)c2ccccc21)C(=O)O (stereo not drawn) [Example 157]            nM             1680
1  O=C(c1cc(F)cnc1Oc1cccc(Cl)c1)N1CCCc2ccccc21 [Example 25]            nM              128
2  COC(=O)C1CCN(C(=O)c2cc(F)cnc2Oc2cc(Cl)ccc2Cl)c2ccccc21 (stereo not drawn) [Example 148]            nM             1960
3  O=C(c1ccncc1Oc1cc(Cl)ccc1Cl)N1CCCc2cc(F)cc(F)c21 [Example 92]            nM                7
4  O=C(c1cccnc1Oc1ccccc1Cl)N1CCCc2ccccc21 [Example 2]            nM              989
5  O=C(c1cc(Cl)cnc1Oc1cc(Cl)ccc1Cl)N1CCCc2ccccc21 [Example 27]            nM              145

[A] CN(C(=O)c1cccnc1Oc1cc(Cl)ccc1Cl)c1ccccc1F [Example 63]
[B] Cc1ccc2c(c1)CCCN2C(=O)c1cc(F)ccc1Oc1cc(Cl)ccc1Cl [Example 116]
[C] CC(C)N1CCN(C(=O)c2cccnc2Oc2cc(Cl)ccc2Cl)c2ccccc21 [Example 124]
Input: List these items ordered by EC50, big to small. Order the labels as requested and list them.
Output: B, C, A
